B1: Ankyrin-2, residues 3571 to 3650; numbered along this chain, Q01484 (parent)
chain: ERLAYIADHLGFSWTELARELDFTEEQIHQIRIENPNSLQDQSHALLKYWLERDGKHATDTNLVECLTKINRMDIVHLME

- Variants of: B1
- test_protocol: abundance fitness (aPCA) (normalised: wild type 0, dead -1); higher = more abundant; growth selection in yeast, the domain comes from the species named
- setup_conditions: Homo sapiens
Documented abundance fitness across a set of variants

// worked examples, abundance fitness included
primary_sequence	abundance fitness
ERLAYIADHLGFSWTELARELDFTEEQIHQIRIENPWSLQDQSHALLKYWLERDGKHATDTNLVECLTKINRMDIVHLME [N37W]	-0.091
ERLAYIADHLGFSWTELACELDFTEEQIHQIRIENPNSLQDQSHALLKYWLERDGKHATDTNLVECLTKINRMDIVHLME [R19C]	-0.089
ERLAYIADHLGFSWTELARELDFTEEQIHQIRIENPNSRQDQSHALLKYWLERDGKHATDTNLVECLTKINRMDIVHLME [L39R]	-0.109

Input ERLAYIADHLLFSWTELARELDFTEEQIHQIRIENPNSLQDQSHALLKYWLERDGKHATDTNLVECLTKINRMDIVHLME [G11L] . Output abundance fitness: -0.117

Input ERLAYIADHLGFSWTELARELDFTKEQIHQIRIENPNSLQDQSHALLKYWLERDGKHATDTNLVECLTKINRMDIVHLME [E25K] . Output abundance fitness: 0.15

Input ERLAYIADHLGFSWTELARELDFTEEQIHQIRIENPNSLQDQSHALLKYWLERDGIHATDTNLVECLTKINRMDIVHLME [K56I] . Output abundance fitness: -0.084

Input ERLAYIADHLGFSWTELARELDFTEAQIHQIRIENPNSLQDQSHALLKYWLERDGKHATDTNLVECLTKINRMDIVHLME [E26A] . Output abundance fitness: -0.087

Input ERLAYIADHLGFSWTELARELDFTEEQIHQIRIENPNSLQDQSHAPLKYWLERDGKHATDTNLVECLTKINRMDIVHLME [L46P] . Output abundance fitness: -0.885

Input ERLAYIADHLGFSWTELARELDFTEEQPHQIRIENPNSLQDQSHALLKYWLERDGKHATDTNLVECLTKINRMDIVHLME [I28P] . Output abundance fitness: -0.833

Input ERLAYIADHLGFSWTELAREVDFTEEQIHQIRIENPNSLQDQSHALLKYWLERDGKHATDTNLVECLTKINRMDIVHLME [L21V] . Output abundance fitness: -0.225

Input ERLAYIADHLGFSWTELARELDFTEEQIHQIRIEKPNSLQDQSHALLKYWLERDGKHATDTNLVECLTKINRMDIVHLME [N35K] . Output abundance fitness: -0.042

Input ERLAYIADHLGFSWTELARELDFTEEQIHQIRIENPNSLQDQSHALLKYQLERDGKHATDTNLVECLTKINRMDIVHLME [W50Q] . Output abundance fitness: 0.003
